Procedure details: NCI Yeast Anticancer Drug Screen. Data for the rad50 strain (AID 155);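 also: 0% = growth of vehicle-only cultures of the same strain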
Run parameters: S. cerevisiae rad50 strain growth inhibition; at 50.0 µM (retest, dose inferred, filed as 5.0); active compounds read high
Protocol: Growth inhibition of yeast strains with defined genetic alterations is measured as a screen for potential anti-cancer activity. Selected strains with alterations in DNA damage repair or cell cycle control were exposed to compounds and growth inhibition was measured relative to vehicle treated controls. The strain used in this assay is rad50
This is part of a sample that, as a whole, favours compounds with a hit. Of some 79,000 tested, about 15% had one in any assay. Residues, ends and D or L forms follow the SMILES beside them. *: point of attachment. Fmoc = O=C(OCC1c2ccccc2-c2ccccc21)*; Boc = CC(C)(C)OC(=O)*
Form field: growth inhibition (one value per entry).
Endpoint name: growth inhibition (%)

{"columns": ["Compound", "Measured value"],
 "data": [
  ["c1ccc2c(c1)N=C1CCCC3CCCC123 (configuration not stated)", 63],
  ["O=C(/C=C/c1ccsc1)c1cccs1", 11],
  ["CC(=O)/C=C/c1cc([N+](=O)[O-])ccc1O", 85],
  ["NNc1ccccc1-c1nc2ccccc2[nH]1", 53],
  ["O=C1c2ccccc2C(=O)c2c(O)c(NCCNCCO)cc(O)c21", 93],
  ["O=C(CCCN1CCC(Nc2ccc(F)cc2)(c2nnnn2C2CCCCC2)CC1)c1ccc(F)cc1", 37],
  ["C[C@H](CCC1=NC(C)(C)CO1)C1CCC2[C@@H]3C(O)C[C@@H]4CC(O)CC[C@]4(C)C3CC[C@@]21C (some centres not stated)", 95],
  ["CCCCCCCCN1COCC(COc2ccccc2C)OC1 (configuration not stated)", 5],
  ["ClCCCOc1c(Cl)cc(Cl)cc1Cl", 13],
  ["COC1=CCC23C(=O)C=CC(=O)C2(C1)C(=O)c1ccccc1C3=O (configuration not stated)", 72],
  ["C/C(=N\\Sc1ccccc1)c1ccccc1O", 71],
  ["O=C(Nc1ccc(Cl)cc1)c1cc2cc(N=Nc3ccccc3Cl)ccc2oc1=O", 54],
  ["CC(CN(C)C)C(=O)/C=C/c1ccc(Cl)c(Cl)c1 (configuration not stated)", 3],
  ["O=C(O)CNC(c1ccccc1)(c1ccccc1)c1ccccc1", 97],
  ["O=CC1(F)CC1(c1ccccc1)c1ccccc1 (configuration not stated)", 17],
  ["CC(C)NCCCNc1c2ccccc2nc2cccc([N+](=O)[O-])c12", 99],
  ["COc1ccc(C(=O)/C=C\\c2ccc(Cl)c(Cl)c2)cc1", 68],
  ["CCN(CC)CCCNc1ccc([N+](=O)[O-])c2nc3ccc(OC)cc3c(NCCCN(CC)CC)c12", 18],
  ["CC(C)(C)OC(=O)NCCCCC(NC(=O)C(Cc1c[nH]c2ccccc12)NC(=O)OCC1c2ccccc2-c2ccccc21)C(=O)O (configuration not stated) (Fmoc-Trp-Lys(Boc)-OH; configuration not given here)", 22],
  ["CCOC(=O)/C(=C\\c1ccc(F)cc1)C(C)=O", 97],
  ["O=c1[nH]c2c([N+](=O)[O-])cccc2c2ccccc12", 80],
  ["CN1CCN(C(=O)c2cccc3cccc(C(=O)O)c23)CC1", 84]
]}
